Consider the following compounds and their measured melting point readings.

Reference set (7 entries):
{"COMPOUND": "Cc1noc2cc3c(cc12)C1(CO3)C(=O)Nc2ccccc21 (centres unmarked) [Example 3.6]", "melting point": "226 to 227 °C"}
{"COMPOUND": "O=C1N(C[C@H]2COCCO2)c2ccccc2C12COc1cc3c(cc12)OCO3 (some centres unmarked) [Example 8]", "melting point": "147 to 149 °C"}
{"COMPOUND": "O=C1N(C2CC2)c2ccccc2C12COc1cc3c(cc12)OCCO3 (centres unmarked) [Example 21]", "melting point": "227 to 228 °C"}
{"COMPOUND": "O=C1N(Cc2ncccc2C(F)(F)F)c2c(F)cccc2C12COc1cc3c(cc12)OCCO3 (centres unmarked) [Example 8.16]", "melting point": "241 to 243 °C"}
{"COMPOUND": "N#Cc1ccc2c(c1)C1(COc3cc4c(cc31)OCCO4)C(=O)N2Cc1ccccn1 (centres unmarked) [Example 2.50]", "melting point": "198 to 199 °C"}
{"COMPOUND": "CN(C)C(=O)c1ccc(CN2C(=O)C3(COc4cc5c(cc43)OCCO5)c3ccccc32)o1 (centres unmarked) [Example 11.33]", "melting point": "224 to 226 °C"}
{"COMPOUND": "O=C1N(Cc2ccccc2C(F)(F)F)c2ccccc2C12COc1cc3[nH]ncc3cc12 (centres unmarked) [Example 46]", "melting point": "124 to 126 °C"}

Okay, next one:
Request: Which melting point is reported for this compound? Cn1nc(C(F)(F)F)c(CN2C(=O)C3(COc4cc5c(cc43)OCO5)c3ccccc32)c1Cl (centres unmarked) [Example 1.16]
Response: 180 to 182 °C

----------
# TARGET: CYP3A4 (Homo sapiens)
# RUN_DESCRIPTION: Cytochrome P450 (CYP450) Inhibition Assay, CYP3A4 (Vivid fluorescence, BOMCC substrate)
# DETAILS: human, P450 Baculosomes (recombinant CYP3A4), probe BOMCC (Vivid substrate)
Below is a list of entries, each paired with its recorded inhibition at 10 µM value.

{"COMPOUND": "CCCCC(=O)Nc1cccc2c1C1(COc3cc4c(cc31)OCCO4)C(=O)N2C (stereo not shown) [Example 16.30]", "MEASUREMENT_KIND": "inhibition at 10 µM", "VALUE_OBSERVED": "< 50%"}

Request: Given the entry O=C(NCc1cccc(Cl)c1)c1ccccc1CN1C(=O)C2(COc3cc4c(cc32)CCO4)c2ccccc21 (stereo not shown) [Example 12.23] , report its measured inhibition at 10 µM.
Response: > 50%

----------
MEASUREMENT_KIND: melting point

{"COMPOUND": "Cn1c(=O)oc2cc3c(cc21)C1(CO3)C(=O)Nc2ccccc21 (centres unmarked)", "VALUE_OBSERVED": "> 250 °C"}

Request: Which melting point is listed for Cc1nc2cc3c(cc2s1)C1(CO3)C(=O)N(Cc2ccccn2)c2ccccc21 (centres unmarked) ?
Response: 249 to 250 °C

Request: Look up melting point for this compound: Cn1c(CN2C(=O)C3(COc4cc5c(cc43)CCO5)c3ccccc32)nc2ccccc21 (centres unmarked)
Response: 244 to 246 °C

Request: # get_value(readout='melting point', item= O=C1N(Cc2ccccn2)c2c(F)cccc2C12COc1cc3c(cc12)OCCO3 (centres unmarked) )
Response: 205 to 207 °C

Request: Any idea what its melting point is? The compound is COc1cc(CN2C(=O)C3(COc4cc5c(cc43)OCCO5)c3ccccc32)cc(OC)c1 (centres unmarked)
Response: 192 to 195 °C

Request: Which melting point value belongs to O=C1N(Cc2ccnnc2)c2ccccc2C12COc1cc3c(cc12)CCO3 (centres unmarked) ?
Response: 187 to 189 °C

----------
Each entry below lists one item and its recorded inhibition at 10 µM value.
# TARGET: CYP3A4 (Homo sapiens, UniProt P08684)
# Sequence (P08684 whole entry): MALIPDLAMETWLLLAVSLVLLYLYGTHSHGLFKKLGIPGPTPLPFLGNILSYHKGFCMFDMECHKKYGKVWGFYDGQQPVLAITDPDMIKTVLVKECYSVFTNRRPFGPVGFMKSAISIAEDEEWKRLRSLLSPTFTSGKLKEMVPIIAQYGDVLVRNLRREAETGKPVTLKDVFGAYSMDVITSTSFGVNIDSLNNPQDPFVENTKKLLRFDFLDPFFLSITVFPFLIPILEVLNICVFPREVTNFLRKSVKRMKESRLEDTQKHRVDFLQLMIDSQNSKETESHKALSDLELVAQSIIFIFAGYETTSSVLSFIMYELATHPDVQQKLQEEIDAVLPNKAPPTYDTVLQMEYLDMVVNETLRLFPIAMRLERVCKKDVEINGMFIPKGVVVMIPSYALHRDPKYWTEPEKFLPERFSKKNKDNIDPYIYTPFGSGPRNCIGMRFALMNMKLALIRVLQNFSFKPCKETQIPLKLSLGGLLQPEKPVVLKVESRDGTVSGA
# RUN_DESCRIPTION: Cytochrome P450 (CYP450) Inhibition Assay, CYP3A4 (Vivid fluorescence, BOMCC substrate)
# DETAILS: human, P450 Baculosomes (recombinant CYP3A4), probe BOMCC (Vivid substrate)

Request: Value lookup for inhibition at 10 µM; key = O=C1N(Cc2ccccc2F)c2ccccc2C12COc1cc3c(cc12)CCO3 (stereo not shown)
Response: < 50%

Request: Form field: reported inhibition at 10 µM of O=C1N(Cc2ccc(-c3noc(C(F)(F)F)n3)cc2)c2ccccc2C12COc1cc3c(cc12)CCO3 (stereo not shown)
Response: < 50%

Request: What does the data say about its inhibition at 10 µM? Entry: COc1cc2c(cc1F)C1(CO2)C(=O)N(Cc2ccccn2)c2ccccc21 (stereo not shown)
Response: < 50%

Request: Would you mind telling me what inhibition at 10 µM value was observed for O=C1N(Cc2ncccc2C(F)(F)F)c2cccc(F)c2C12COc1cc3c(cc12)OCCO3 (stereo not shown) ?
Response: < 50%

Request: For Nc1noc2cc3c(cc12)C1(CO3)C(=O)N(Cc2ccccc2C(F)(F)F)c2ccccc21 (stereo not shown) , what is its reported inhibition at 10 µM?
Response: > 50%

Request: Given N#Cc1ccc2c(c1)C1(COc3cc4c(cc31)OCCO4)C(=O)N2Cc1ccccn1 (stereo not shown) , state its recorded inhibition at 10 µM.
Response: < 50%

Request: Need inhibition at 10 µM of O=C1N(Cc2ncccc2C(F)(F)F)c2ccccc2C12OCOc1cc3c(cc12)OCCO3 (stereo not shown) , thanks.
Response: < 50%

Request: Form field: reported inhibition at 10 µM of O=C1N(Cc2nsc(Cl)n2)c2cccc(Cl)c2C12COc1cc3c(cc12)OCO3 (stereo not shown)
Response: > 50%

Request: I'd like to know its inhibition at 10 µM. The compound in question is Nc1nc(C(F)(F)F)c(CN2C(=O)C3(COc4cc5c(cc43)OCO5)c3ccccc32)s1 (stereo not shown)
Response: > 50%

----------
# TARGET: CYP3A4 (Homo sapiens, UniProt P08684)
# RUN_DESCRIPTION: Cytochrome P450 (CYP450) Inhibition Assay, CYP3A4 (Vivid fluorescence, BOMCC substrate)
# DETAILS: human, P450 Baculosomes (recombinant CYP3A4), probe BOMCC (Vivid substrate)
MEASUREMENT_KIND: inhibition at 10 µM

Known results for molecules:
{"MOLECULE": "O=C1N(CC2CCOCC2)c2ccccc2C12COc1cc(F)c(F)cc12 (centres unmarked) [Example 9.65]", "VALUE_OBSERVED": "< 50%"}
{"MOLECULE": "O=C1N(C[C@H]2CCCO2)c2cccc(-c3csc4ccccc34)c2C12COc1cc3c(cc12)CCO3 (some centres unmarked) [Example 16.3]", "VALUE_OBSERVED": "> 50%"}
{"MOLECULE": "CC(C)(C)c1nc(CN2C(=O)C3(COc4cc5c(cc43)OCO5)c3ccccc32)no1 (centres unmarked) [Example 11.23]", "VALUE_OBSERVED": "> 50%"}
{"MOLECULE": "O=C1Nc2ccccc2C12COc1cc3c(cc12)CCCC3 (centres unmarked) [Example 3.45]", "VALUE_OBSERVED": "> 50%"}
{"MOLECULE": "N#Cc1cccc(CN2C(=O)C3(COc4cc5c(cc43)OCCO5)c3ccccc32)n1 (centres unmarked) [Example 41]", "VALUE_OBSERVED": "< 50%"}

Request: Quick check: inhibition at 10 µM of CN1C(=O)COc2cc3c(cc21)OCC31C(=O)Nc2ccccc21 (centres unmarked) [Example 3.23] ?
Response: < 50%

Request: Form field: reported inhibition at 10 µM of O=C1N(Cc2ccc(C(F)(F)F)o2)c2c(Cl)cccc2C12COc1cc3c(cc12)CCO3 (centres unmarked) [Example 5.1]
Response: > 50%

Request: Item under review: O=C(O)c1ccc(CN2C(=O)C3(COc4cc5c(cc43)CCO5)c3ccccc32)cc1 (centres unmarked) [Example 11.31] . Reported inhibition at 10 µM?
Response: < 50%

Request: Quick one: inhibition at 10 µM of CN1CCN(CN2C(=O)C3(COc4cc5c(cc43)OCO5)c3ccccc32)CC1 (centres unmarked) [Example 11.63] ?
Response: > 50%

Request: Would you mind telling me what inhibition at 10 µM value was observed for O=C1N(Cc2noc(C(F)F)n2)c2cccc(Cl)c2C12COc1cc3c(cc12)OCO3 (centres unmarked) [Example 11.21] ?
Response: > 50%

Request: Please give the measured inhibition at 10 µM for this molecule: O=C1N(Cc2noc(C(F)(F)F)n2)c2ccccc2C12COc1cc3c(cc12)OCCO3 (centres unmarked) [Example 11.90]
Response: > 50%

Request: Give the measured inhibition at 10 µM of O=C1N(Cc2ccc(C(F)(F)F)o2)c2ccccc2[C@@]12COc1cc3c(cc12)OCCO3 [Example 4.49] .
Response: > 50%

Request: I am curious: what inhibition at 10 µM value has been reported for O=C1N(Cc2csc(-c3ccc(C(F)(F)F)cc3)n2)c2ccccc2C12COc1cc3c(cc12)OCO3 (centres unmarked) [Example 6.5] ?
Response: > 50%
